Origin of the recorded values: the supplement of paper PMC9732359

- Protocol details: protein stability index of a GFP-peptide fusion (yeast GPS) (PSI 1-4); higher = more stable; sorted into four equal gates, so the index is relative within each strain
- Details: doa10∆
Listing: protein stability index of selected sequences
Write no unit; give the number alone.

-- ask Entry VLEKKTRQASDLASSKE [RPN5] has what protein stability index?
-- reply 3.38

-- ask What value of protein stability index has been reported for the following sequence? MAVGKNKRLSRGKKGLK [RPS1B]
-- reply 1.49

-- ask Returns the measured protein stability index for the input sequence. Input: NTAPGLGNTVSTQPSFA [YGR119C/NUP57]
-- reply 3.04

====

Recorded protein stability index, one value per entry.
- Protocol details: protein stability index of a GFP-peptide fusion (yeast GPS) (PSI 1-4); higher = more stable; sorted into four equal gates, so the index is relative within each strain
- Details: san1∆

INSERT INTO measurements (ordered_residues, observed_result) VALUES
  ('ALTRGEALLVVLVSSVT [RPS12]', 3.52);

-- ask Which value of protein stability index has been reported for GDIVLTRVTRLSLQRAN [CSL4] in the records?
-- reply 1.59

-- ask Fill blank: measured protein stability index of the sequence AKGLVAYHQKYVDEQSK [RPS16A] is ____.
-- reply 2.52

-- ask Fill in the blank: the reported protein stability index of YSPIEKESPWKILMYQY [RRP6] is ____.
-- reply 1.35

-- ask Please give the measured protein stability index for this sequence: VPATAAPGTEAGIVPVS [SWI1]
-- reply 3.14

-- ask # get_value(readout='protein stability index', item= LETEQLSSELDSNKTLL [SMC2] )
-- reply 3.26

-- ask Given the sequence LARHLPAELDLRGSLLS [RPC82] , what is its reported protein stability index?
-- reply 3.01

-- ask // lookup protein stability index for VGCIFAELIGLQPIFKG [SSN3]
-- reply 3.06

====

Listed next: entries and their corresponding protein stability index.
- Protocol details: protein stability index of a GFP-peptide fusion (yeast GPS) (PSI 1-4); higher = more stable; sorted into four equal gates, so the index is relative within each strain
- Details: pdr5∆
I only need the number, thanks.

Consider the worked cases shown below.
INSERT INTO measurements (ordered_residues, property, observed_result) VALUES
  ('EARFWHLVELLLVFRNA [YDL116W/NUP84]', 'protein stability index', 2.1),
  ('SLEEIIAEGQKKFATVP [RPP2B]', 'protein stability index', 2.89),
  ('DSYLILDTLPSEFDSRV [RPT5]', 'protein stability index', 3.48),
  ('QPDANKKKRSRTSATRE [ISW2]', 'protein stability index', 3.38),
  ('VSEITKLKFFPSGEALI [RPN14]', 'protein stability index', 2.76),
  ('GDKFSEDFRIQFKTTIK [UBP6]', 'protein stability index', 2.93);

We now examine a further sequence.
-- ask Which protein stability index reading was recorded for the sequence DVRRLKKNVWRSINNLI [BRN1] ?
-- reply 1.9

====

- Protocol details: protein stability index of a GFP-peptide fusion (yeast GPS) (PSI 1-4); higher = more stable; sorted into four equal gates, so the index is relative within each strain
- Details: doa10∆
Could you label it Criterion met if measured protein stability index is 3 or higher, and Criterion not met otherwise?

Would you please look over these solved cases?
INSERT INTO results (ordered_residues, qualitative_label) VALUES
  ('TLFVRDQDSAVVSSNIK [QCR2]', 'Criterion not met'),
  ('HSKRELDSGDDQPQSSE [BRR2]', 'Criterion met'),
  ('RLECVKCKTRAQLTLKR [RPL42A]', 'Criterion not met'),
  ('LETEQLSSELDSNKTLL [SMC2]', 'Criterion met'),
  ('MKRADKFKDMGIRAPKG [RPT5]', 'Criterion not met'),
  ('DSEGSIKQTSDESTIKR [ECM29]', 'Criterion met');

Attention now turns to another entry.
-- ask Given the entry SLLLKNYLNDMHDSNLQ [SKP1] , answer whether its protein stability index meets or surpasses 3.
-- reply Criterion not met

====

Overview of recorded protein stability index for various sequences
- Protocol details: protein stability index of a GFP-peptide fusion (yeast GPS) (PSI 1-4); higher = more stable; sorted into four equal gates, so the index is relative within each strain
- Details: ubr1∆

Please review the entries below; each comes with its answer.
INSERT INTO assay_data (ordered_residues, observed_result) VALUES
  ('AITISNSIDINYKGLPK [SMC1]', 2.98),
  ('SVKEDVKNNQELDQEYR [SMC4]', 3.36),
  ('DYYYEDAGSNQYYVTQH [SWI1]', 3.22),
  ('PINLKFLQGESPFSITF [YMR129W/POM152]', 2.32),
  ('NEIANSIIQSKQDCVDW [BRR2]', 2.88);

-- ask Give its protein stability index value. Item: SKQPNSAIRKCVRVQLI [RPS23A]
-- reply 2.96

-- ask So what's the measured protein stability index for this one? ARIFEFPKTTVAALRFT [RPL18A]
-- reply 1.79

-- ask Look up protein stability index: GMGIGFIDHHAAIRQPT [POP1]
-- reply 2.49

-- ask Tell me the measured protein stability index of LDTLPSEFDSRVKAMEV [RPT5] , please.
-- reply 3.36

====

- Protocol details: protein stability index of a GFP-peptide fusion (yeast GPS) (PSI 1-4); higher = more stable; sorted into four equal gates, so the index is relative within each strain
- Details: pdr5∆
Property: protein stability index
Hey, just send me the number, nothing else.

Please review the following examples before continuing.
INSERT INTO results (ordered_residues, observed_result) VALUES
  ('FSFSKSEEERKSSPISN [YOR098C/NUP1]', 2.23),
  ('VLNQQLPIESQFVSKLV [BRR2]', 1.98),
  ('KKENLTRDETVSLIKKY [YML103C/NUP188]', 2.83),
  ('SKSAFSFGTANTNGTNA [YOR098C/NUP1]', 3.08),
  ('YEKNFEATLESKLKEEE [ESC2]', 3.13);

-- ask What value of measured protein stability index is listed for MRSKLEKLTLVTLSEIY [CSN9] ?
-- reply 1.79

-- ask Record request: protein stability index value, item ILKWVQWSRIVLQNVFK [MED1]
-- reply 3.13

====

protein stability index values by entry
- Protocol details: protein stability index of a GFP-peptide fusion (yeast GPS) (PSI 1-4); higher = more stable; sorted into four equal gates, so the index is relative within each strain
- Details: san1∆
# print the numeric value only

INSERT INTO results (ordered_residues, observed_result) VALUES
  ('HKYVLTLQLYMVHREFL [RGR1]', 1.86),
  ('NVNETMSRSLANGIINV [SMC3]', 2.96),
  ('KPQRTNTLRMKHGTYDK [RPB2]', 2.84);

-- ask Item under review: AKSMAFLKEVLSDLSSP [YML103C/NUP188] . Reported protein stability index?
-- reply 2.79

-- ask Record request: protein stability index value, item FKRVSQTFEAKLHFKDT [NUT1]
-- reply 3.41

-- ask Which protein stability index is listed for MAAEKILTPESQLKKSK [RPL7A] ?
-- reply 3.25

-- ask Given the sequence YLINGKRFKRKDNAKIS [SRP68] , what is its reported protein stability index?
-- reply 1.75

-- ask Item LSESLTKFFDDAKSTPL [RPN9] has what recorded protein stability index?
-- reply 3.18

-- ask Can you share its protein stability index? I mean this sequence: KKSQCKKKTTLEDFENF [YIL149C/MLP2]
-- reply 3.08

-- ask Give the measured protein stability index of GRVKALEQFMERNNIGE [YDL116W/NUP84] .
-- reply 2.75

-- ask Endpoint output: protein stability index of KIALGSPIVNVLEDVYR [RRI2] . Value?
-- reply 2.31

-- ask Can you look up the measured protein stability index of AQYEVLANYLTSALSEL [QCR2] for me?
-- reply 1.99

-- ask Record request: protein stability index value, item LPNQIPGEYITTIKAIF [YMR129W/POM152]
-- reply 2.78

-- ask Item GGLFGNSAQNNSTTSGG [YGR119C/NUP57] has what recorded protein stability index?
-- reply 2.78

====

- Protocol details: protein stability index of a GFP-peptide fusion (yeast GPS) (PSI 1-4); higher = more stable; sorted into four equal gates, so the index is relative within each strain
- Details: ubr1∆
Use 3 as the dividing line for protein stability index, with the line itself on the fulfilled side and lower values as not fulfilled.

For orientation, consider the following solved cases.
INSERT INTO assay_data (ordered_residues, qualitative_label) VALUES
  ('VTSKVRNAEFKVSKNST [YMR153W/NUP53]', 'fulfilled'),
  ('LGSHSSSQKDGNDFKFN [REC8]', 'fulfilled'),
  ('GSQFIVVSLKEGMFANA [SMC2]', 'fulfilled'),
  ('KSRGSDLQYLGEFSGKN [RRP6]', 'fulfilled');

-- ask # check: protein stability index of DSLKKLLPQWDDDQIES [ARP9] is greater than or equal to 3
-- reply fulfilled

-- ask Given the entry SDIPKTTVQVAEEAIVN [PRE4] , answer whether its protein stability index meets or surpasses 3.
-- reply not fulfilled

-- ask Item ENGQRDLDRIAAQTLEE [RPS19A] with protein stability index of 3 or above?
-- reply fulfilled

-- ask Exam item: decide whether the reported protein stability index for YYYNTKIYKLENGERKL [YMR129W/POM152] is at least 3.
-- reply fulfilled

-- ask // inclusive: protein stability index at least 3? input: KQERLKENEESLTPTQS [PRP28]
-- reply fulfilled

-- ask Check this sequence for protein stability index at or above 3: FTSAPIEVTIGIDQYSF [AAR2]
-- reply not fulfilled

-- ask Hello, I need to know if TCVSMAPIQLKIDLLSG [RGR1] has measured protein stability index not below 3. Thanks!
-- reply not fulfilled

-- ask Has YALQSVKLPRAFIDERA [RRP43] a recorded protein stability index greater than or equal to 3?
-- reply not fulfilled
